Form field: pIC50 (one value per entry).
Target: human D2R/β-arrestin (Homo sapiens (Human))
Sequence (P14416 whole entry): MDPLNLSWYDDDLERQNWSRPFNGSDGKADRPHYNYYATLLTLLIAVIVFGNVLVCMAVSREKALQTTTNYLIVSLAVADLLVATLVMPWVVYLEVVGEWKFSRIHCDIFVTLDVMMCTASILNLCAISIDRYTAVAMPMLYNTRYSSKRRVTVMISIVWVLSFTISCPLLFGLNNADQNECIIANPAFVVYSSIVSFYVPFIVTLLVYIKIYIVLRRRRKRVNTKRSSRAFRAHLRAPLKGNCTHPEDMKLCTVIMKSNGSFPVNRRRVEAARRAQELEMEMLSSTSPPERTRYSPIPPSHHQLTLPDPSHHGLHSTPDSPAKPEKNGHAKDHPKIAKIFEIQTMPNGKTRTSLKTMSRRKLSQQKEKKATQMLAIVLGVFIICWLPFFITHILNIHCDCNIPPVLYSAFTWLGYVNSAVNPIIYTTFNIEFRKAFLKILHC
Assay: cell-based
Conditions: cAMP Antagonist, CHO-K1 cells expressing human D2R/β-arrestin; antagonist mode, 2.5 μM forskolin and 2.7 nM quinpirole
pIC50: −log10 of the molar value.

Here is how some compounds turned out for pIC50.
[[record]]
compound = "CC1(Oc2ccccc2)CCN(CCC(=O)c2ccccc2C(F)(F)F)CC1 [Compound 116]"
reading = "5.00 to 6.00"

[[record]]
compound = "COc1ccccc1OCCN1CCC(C)(O)CC1 [Compound 301, reference compound]"
reading = "6.00 to 7.00"


## Input Using the record for CC1(Oc2ccc(Cl)cc2)CCN(CCOc2ccc3ncoc3c2)C1 (centres unmarked) [Example 92] , state its measured pIC50.
## Output 6.00 to 7.00

## Input Supply reported pIC50 belonging to this compound: C#CC1(Oc2ccccc2)CCN(CCOc2ccccc2C(F)(F)F)CC1 [Compound 194]
## Output < 4.52

## Input Kindly indicate its recorded pIC50. Item: CC1(Oc2ccccn2)CCN(CCOc2ccccc2C(F)(F)F)CC1 [Example 105]
## Output > 7.00

---

Target: human D2R/β-arrestin (Homo sapiens (Human))
Assay: cell-based
Conditions: β-arrestin Antagonist, CHO-K1 cells expressing human D2R/β-arrestin; antagonist mode, quinpirole 130 nM
molecules and their reported IC50

Known results for molecules:
[[record]]
molecule = "CC1(Oc2ccc(Cl)cc2)CCN(CCOc2ccc(C(F)(F)F)cc2)C1 (stereo not drawn) [Compound 17]"
target_system = "human D2R/β-arrestin (Homo sapiens (Human))"
measurement_type = "IC50"
reading = "10 to 30 µM"

[[record]]
molecule = "CC1(Oc2ccc(Cl)cc2)CCN(CCOc2ccc3cnccc3c2)C1 (stereo not drawn) [Compound 33]"
target_system = "human D2R/β-arrestin (Homo sapiens (Human))"
measurement_type = "IC50"
reading = "1 to 10 µM"

[[record]]
molecule = "COc1ccccc1OC1(C)CCN(CCOc2ccccc2)C1 (stereo not drawn) [Example 84]"
target_system = "human D2R/β-arrestin (Homo sapiens (Human))"
measurement_type = "IC50"
reading = "1 to 10 µM"

[[record]]
molecule = "CC1(O)CCN(CCOc2ccc(C(F)(F)F)cc2)CC1 [Compound 132]"
target_system = "human D2R/β-arrestin (Homo sapiens (Human))"
measurement_type = "IC50"
reading = "10 to 30 µM"

[[record]]
molecule = "c1ccc(OCCN2CCC3(Cc4ccccc4O3)C2)cc1 (stereo not drawn) [Compound 181]"
target_system = "human D2R/β-arrestin (Homo sapiens (Human))"
measurement_type = "IC50"
reading = "1 to 10 µM"

[[record]]
molecule = "COc1cc2c(cc1O)C1Cc3ccc(O)c(OC)c3CN1CC2 (racemic) [D,L-Stepholidine, reference compound]"
target_system = "human D2R/β-arrestin (Homo sapiens (Human))"
measurement_type = "IC50"
reading = "< 0.1 µM"

[[record]]
molecule = "Fc1ccccc1OCCN1CCC2(CC1)CCN2c1ccc(Cl)cc1 [Compound 137]"
target_system = "human D2R/β-arrestin (Homo sapiens (Human))"
measurement_type = "IC50"
reading = "< 0.1 µM"

[[record]]
molecule = "CC1(Oc2ccccc2)CCN(CCOc2ccccc2Cl)CC1 [Example 89]"
target_system = "human D2R/β-arrestin (Homo sapiens (Human))"
measurement_type = "IC50"
reading = "< 0.1 µM"


API: the following record is the query input.
## Input Using human D2R/β-arrestin (Homo sapiens (Human)) as the test system, report measured IC50 of CC1(O)CCN(C2CCCN(c3ccccc3C(F)(F)F)C2)CC1 (stereo not drawn) [Compound 177] .
## Output 1 to 10 µM

Where these numbers come from: patent US11498896B2
